Test system: human lung cancer strain NCI-H441
assay_protocol: NCI-H441 cell proliferation inhibitory activity (CellTiter-Glo, 4 days)
Format: cell-based
condition_info: NCI-H441 cells, 4 days, read-out: NCl-H441 IC50
Assignment: determine reported pIC50 for the given molecules.
For clarity, pIC50 is expressed as the negative log10 of concentration in mol/L.

stdin: Entry `CCC[C@H]1C(=O)N[C@@H]([C@@H](C)CC)C(=O)N2CCCC[C@H]2C(=O)N(C)[C@H]2C/C=C\CCN(C2=O)[C@@H](Cc2ccc(C(F)(F)F)cc2)C(=O)N(C)CC(=O)N[C@@H](CCc2cc(F)c(C(F)(F)F)c(F)c2)C(=O)N2C[C@H](OCC)C[C@H]2C(=O)N(C)C2(CCC2)C(=O)N(C)[C@@H](C2CCCC2)C(=O)N(C)[C@H](C(=O)N(C)C)CC(=O)N1C` has what pIC50?
stdout: 7.64

stdin: Okay, and `CCC[C@H]1C(=O)N[C@@H](C23CC(C2)C3)C(=O)N2CCC[C@H]2C(=O)N(C)[C@H]2C/C=C\CCN(C2=O)[C@@H](Cc2ccc(C(F)(F)F)cc2)C(=O)N(C)CC(=O)N[C@@H](CCc2ccc(C(F)(F)F)c(OC)c2)C(=O)N2C[C@H](OCC)C[C@H]2C(=O)N(C)C2(CCC2)C(=O)N(C)[C@@H](C2CCCC2)C(=O)N(C)[C@H](C(=O)N(C)C)CC(=O)N1C` ?
stdout: 7.53

stdin: What would you report for `CCC[C@H]1C(=O)N[C@@H]([C@@H](C)CC)C(=O)N2CCC[C@H]2C(=O)N(C)[C@H]2C/C=C\CCN(C2=O)[C@@H](Cc2ccc(C)cc2)C(=O)N(C)CC(=O)N[C@@H](CCc2ccc(C(F)(F)F)c(Cl)c2)C(=O)N2CC[C@H](OC)[C@H]2C(=O)N(C)C2(CCC2)C(=O)N(C)[C@@H](C2CCCC2)C(=O)N(C)[C@H](C(=O)N(C)C)CC(=O)N1C` ?
stdout: 8.15

stdin: Field entry: `CCC[C@H]1C(=O)N[C@@H]([C@@H](C)CC)C(=O)N2CCC[C@H]2C(=O)N(C)[C@H]2C/C(F)=C\CCN(C2=O)[C@@H](Cc2ccc(C(F)(F)F)cc2)C(=O)N(C)CC(=O)N[C@@H](CCc2ccc(C(F)(F)F)c(OC)c2)C(=O)N2C[C@H](OCC)C[C@H]2C(=O)N(C)C2(CCC2)C(=O)N(C)[C@@H](C2CCCC2)C(=O)N(C)[C@H](C(=O)N(C)C)CC(=O)N1C`
stdout: 8.03

stdin: Ok, now `CCC[C@H]1C(=O)N[C@@H]([C@@H](C)CC)C(=O)N(C)CC(=O)N(C)[C@H]2C/C=C\CCN(C2=O)[C@@H](Cc2ccc(C(F)(F)F)cc2)C(=O)N(C)CC(=O)N[C@@H](CCc2cc(F)c(C(F)(F)F)c(F)c2)C(=O)N2CC[C@H](OC)[C@H]2C(=O)N(C)C2(CCC2)C(=O)N(C)[C@@H](C2CCCC2)C(=O)N(C)[C@H](C(=O)N(C)C)CC(=O)N1C`
stdout: 8.30

stdin: // next record `CCO[C@@H]1C[C@H]2C(=O)NC3(CC(C)(C)C3)C(=O)N(C)[C@@H](C3CCCC3)C(=O)N(C)[C@H](C(=O)N(C)CC)CC(=O)N(C)[C@@H]([C@H](C)OC)C(=O)N[C@@H]([C@@H](C)CC)C(=O)N(C3CC3)CC(=O)N(C)[C@H]3C/C=C\CCN(C3=O)[C@@H](Cc3ccc(C)cc3)C(=O)N(C)CC(=O)N[C@@H](CCc3ccc(C(F)(F)F)c(OC)c3)C(=O)N2C1`
stdout: 7.38

stdin: Likewise for `CCC[C@H]1C(=O)N[C@@H]([C@@H](C)CC)C(=O)N(C)CC(=O)N(C)[C@H]2C/C=C\CCN(C2=O)[C@@H](CC2CCC(F)(F)CC2)C(=O)N(C)CC(=O)N[C@@H](CCc2ccc(C(F)(F)F)c(Cl)c2)C(=O)N2C[C@H](OCC)C[C@H]2C(=O)NC2(CC(C)(C)C2)C(=O)N(C)[C@@H](C(CC)CC)C(=O)N(C)[C@H](C(=O)N(C)C)CC(=O)N1C` ?
stdout: 7.66

stdin: Then what about the molecule `CCC[C@H]1C(=O)N[C@@H]([C@@H](C)CC)C(=O)N(C)CC(=O)N(C)[C@H]2C/C=C\CCN(C2=O)[C@@H](Cc2ccc(C(F)(F)F)cc2)C(=O)N(C)CC(=O)N[C@@H](CCc2ccc(C(F)(F)F)c(OC)c2)C(=O)N2CC3(CC3)C[C@H]2C(=O)NC2(CCC2)C(=O)N(C)[C@@H](CC(C)(C)C)C(=O)N(C)[C@H](C(=O)N(C)C)CC(=O)N1C` ?
stdout: 8.37

stdin: Request: `CCCO[C@@H]1C[C@H]2C(=O)NC3(CC(C)(C)C3)C(=O)N(C)[C@@H](C3CCCC3)C(=O)N(C)[C@H](C(=O)N(C)CC)CC(=O)N[C@@H](COCC)C(=O)N[C@@H]([C@@H](C)CC)C(=O)N(C3CC3)CC(=O)N(C)[C@H]3C/C=C\CCN(C3=O)[C@@H](Cc3ccc(C)cc3)C(=O)N(C)CC(=O)N[C@@H](CCc3ccc(C(F)(F)F)c(OC)c3)C(=O)N2C1`
stdout: 7.29

stdin: Lookup `CCO[C@@H]1C[C@H]2C(=O)NC3(CC(C)(C)C3)C(=O)N(C)[C@@H](C3CCCC3)C(=O)N(C)[C@H](C(=O)N(C)C)CC(=O)N[C@@H](CC3CC3)C(=O)N[C@@H]([C@@H](C)CC)C(=O)N(C)CC(=O)N(C)[C@H]3C/C=C\CCN(C3=O)[C@@H](Cc3ccc(C(F)(F)F)cc3)C(=O)N(C)CC(=O)N[C@@H](CCc3ccc(C(F)(F)F)c(OC)c3)C(=O)N2C1`
stdout: 7.74

stdin: Try `CCCOC[C@H]1C(=O)N[C@@H]([C@@H](C)CC)C(=O)N(C)CC(=O)N(C)[C@H]2C/C=C\CCN(C2=O)[C@@H](CC2CCC(F)(F)CC2)C(=O)N(C)CC(=O)N[C@@H](CCc2ccc(C(F)(F)F)c(OC)c2)C(=O)N2C[C@@H](C)C[C@H]2C(=O)NC2(CC(C)(C)C2)C(=O)N(C)[C@@H](C(CC)CC)C(=O)N(C)[C@H](C(=O)N(C)C)CC(=O)N1C` next.
stdout: 6.71

----------
system_under_test: GDP-bound KRAS wild-type protein (Homo sapiens, UniProt P01116)
Sequence (P01116 1-188 isoform P01116-2): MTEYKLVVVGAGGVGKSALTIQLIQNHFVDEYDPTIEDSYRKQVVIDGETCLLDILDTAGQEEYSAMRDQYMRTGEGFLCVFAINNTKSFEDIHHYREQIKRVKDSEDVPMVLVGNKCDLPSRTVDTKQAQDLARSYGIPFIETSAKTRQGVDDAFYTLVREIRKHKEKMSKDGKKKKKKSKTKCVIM
assay_protocol: Binding to KRAS by surface plasmon resonance (SPR), dissociation constant KD
condition_info: Single Cycle Kinetics, 1:1 binding model
Would you mind telling me the reported Kd of each entry?
Write the answer as a number in nM, unit excluded.

stdin: Form field: reported Kd of `CCO[C@@H]1C[C@H]2C(=O)NC3(CCC3)C(=O)N(C)[C@@H](C3CCCC3)C(=O)N(C)[C@H](C(=O)N3CCOCC3)CC(=O)N(C)[C@@H](CC3CCC3)C(=O)N[C@@H]([C@@H](C)CC)C(=O)N(C)CC(=O)N(C)[C@H]3C/C=C\CCN(C3=O)[C@@H](Cc3ccc(C(F)(F)F)cc3)C(=O)N(C)CC(=O)N[C@@H](CCc3cc(F)c(C(F)(F)F)c(F)c3)C(=O)N2C1`
stdout: 0.22

stdin: Next molecule up: `CCO[C@@H]1C[C@H]2C(=O)NC3(CCC3)C(=O)N(C)[C@@H](C(CC)CC)C(=O)N(C)[C@H](C(=O)N(C)C)CC(=O)N(C)[C@@H](CC(C)C)C(=O)N[C@@H]([C@@H](C)CC)C(=O)N(C)CC(=O)N(C)[C@H]3C/C=C\CCN(C3=O)[C@@H](Cc3ccc(C(F)(F)F)cc3)C(=O)N(C)CC(=O)N[C@@H](CCc3ccc4sccc4c3)C(=O)N2C1`
stdout: 1.1

stdin: Same lookup for `CCO[C@@H]1C[C@H]2C(=O)NC3(CCC3)C(=O)N(C)[C@@H](C3CCCC3)C(=O)N(C)[C@H](C(=O)N(C)CC)CC(=O)N(C)[C@H]3CCCCCCc4ccc(cc4)C[C@@H](C(=O)N(C)CC(=O)N[C@@H](CCc4ccc(C(F)(F)F)c(OC)c4)C(=O)N2C1)N1CC/C=C\C[C@@H](C1=O)N(C)C(=O)CN(C)C(=O)[C@H]([C@@H](C)CC)NC3=O` , please.
stdout: 0.98

----------
system_under_test: GDP-bound KRAS wild-type protein (Homo sapiens)
assay_protocol: Binding to KRAS by surface plasmon resonance (SPR), dissociation constant KD
condition_info: Single Cycle Kinetics
Give measured pKd for each item. Keep answers brief.
Expect pKd as a plain number equal to -log10 of the molar concentration.

stdin: GET /values?readout=pKd&item= `CCCOC[C@H]1C(=O)N[C@@H](C2CCCC2)C(=O)N(CCC)CC(=O)N(C)[C@H]2C/C=C\CCN(C2=O)[C@@H](Cc2ccc(C)cc2)C(=O)N(C)CC(=O)N[C@@H](CCc2ccc(Cl)c(C(F)(F)F)c2)C(=O)N2C[C@H](OC(C)C)C[C@H]2C(=O)N(C)C2(CCC2)C(=O)N(C)[C@@H](C(CC)CC)C(=O)N(C)[C@H](C(=O)N(C)C)CC(=O)N1C`
stdout: 8.96

stdin: Thanks! And `CCC[C@H]1C(=O)N[C@@H](C2CCCC2)C(=O)N(C)CC(=O)N(C)[C@H]2C/C=C\CCN(C2=O)[C@@H](Cc2ccc(C(F)(F)F)cc2)C(=O)N(C)CC(=O)N[C@@H](CCc2cc(F)c(C(F)(F)F)c(F)c2)C(=O)N2CC3(CC3)C[C@H]2C(=O)N(C)C2(CCC2)C(=O)N(C)[C@@H](C(CC)CC)C(=O)N(C)[C@H](C(=O)N(C)C)CC(=O)N1C` ?
stdout: 9.17

stdin: # repeat for `C#CC[C@H]1C(=O)N[C@@H]([C@@H](C)CC)C(=O)N(C2CC2)CC(=O)N(C)[C@H]2C/C=C\CCN(C2=O)[C@@H](Cc2ccc(C)cc2)C(=O)N(C)CC(=O)N[C@@H](CCc2ccc(C(F)(F)F)c(OC)c2)C(=O)N2C[C@H](OCC)C[C@H]2C(=O)N(C)C2(CCC2)C(=O)N(C)[C@@H](C2CCCC2)C(=O)N(C)[C@H](C(=O)N(C)C)CC(=O)N1C`
stdout: 10.11

stdin: Now the same for `CCCO[C@@H]1C[C@H]2C(=O)NC3(CC(C)(C)C3)C(=O)N(C)[C@@H](C3CCCC3)C(=O)N(C)[C@H](C(=O)N(C)CC)CC(=O)N(C)[C@@H](COCC)C(=O)N[C@@H]([C@@H](C)CC)C(=O)N(C3CC3)CC(=O)N(C)[C@H]3C/C=C\CCN(C3=O)[C@@H](Cc3ccc(C(F)(F)F)cc3)C(=O)N(C)CC(=O)N[C@@H](CCc3ccc(C(F)(F)F)c(Cl)c3)C(=O)N2C1`
stdout: 9.09

stdin: Now give it for `CCC[C@H]1C(=O)N[C@@H]([C@@H](C)CC)C(=O)N(C2CC2)CC(=O)N(C)[C@H]2C/C=C\CCN(C2=O)[C@@H](Cc2ccc(C)cc2)C(=O)N(C)CC(=O)N[C@@H](CCc2cc(F)c(C(F)(F)F)c(F)c2)C(=O)N2C[C@H](OCC)C[C@H]2C(=O)NC2(CCCC2)C(=O)N(C)[C@@H](C2CCCC2)C(=O)N(C)[C@H](C(=O)N(C)C)CC(=O)N1C` too.
stdout: 9.29

stdin: Repeat for the following molecule: `CCCN1CC(=O)N(C)[C@H]2C/C=C\CCN(C2=O)[C@@H](Cc2ccc(C(F)F)cc2)C(=O)N(C)CC(=O)N[C@@H](CCc2cc(F)c(C(F)(F)F)c(F)c2)C(=O)N2C[C@H](OC(C)C)C[C@H]2C(=O)N(C)C2(CCC2)C(=O)N(C)[C@@H](C(CC)CC)C(=O)N(C)[C@H](C(=O)N(C)C)CC(=O)N(C)[C@@H](CC(F)F)C(=O)N[C@@H](C2CCCC2)C1=O`
stdout: 9.13
